species on record: Rattus norvegicus; assay: Open TG-GATES - Regimen: Single; type: toxicity, organism-based, Sprague-Dawley; design: regimen Single, gender Male, age 6 weeks; conditions: in vivo, po, 100 mg/kg, 3 h, tissue Blood, route gavage, dose level Low
Would you kindly list MCH for each of these molecules?
// return numeric value only (unit: pg, not printed)

Any idea what its MCH is? The molecule is COC1=CC(=O)C[C@@H](C)[C@]12Oc1c(Cl)c(OC)cc(OC)c1C2=O 21.6

CCOC(=O)CCC(=O)O[C@H]1[C@H](O[C@@H]2[C@@H](C)[C@H](O[C@H]3C[C@@](C)(OC)[C@@H](O)[C@H](C)O3)[C@@H](C)C(=O)O[C@H](CC)[C@@](C)(O)[C@H](O)[C@@H](C)C(=O)[C@H](C)C[C@@]2(C)O)O[C@H](C)C[C@@H]1N(C)C [ERYTHROMYCIN ETHYLSUCCINATE] ? 21.4

Follow-up item: COc1ccc2[nH]c([S+]([O-])Cc3ncc(C)c(OC)c3C)nc2c1 (centres undefined) 21.2

What do you have for NC(N)=Nc1nc(CSCCC(N)=NS(N)(=O)=O)cs1 ? 22.6

---

species on record: Rattus norvegicus; assay: Open TG-GATES - Regimen: Single; assay type: toxicity, organism-based, Sprague-Dawley; design: regimen Single, gender Male, age 6 weeks; settings: in vivo, po, 300 mg/kg, 9 h, tissue Plasma, route gavage, dose level Middle
MEASURED ATTRIBUTE: gamma-GTP (IU/L)
Write the number in IU/L without appending the unit.

Given the compound NC(N)=Nc1nc(CSCCC(N)=NS(N)(=O)=O)cs1 [FAMOTIDINE] , what is its reported gamma-GTP? 0.6

Try the compound COC1=CC(=O)C[C@@H](C)[C@]12Oc1c(Cl)c(OC)cc(OC)c1C2=O [GRISEOFULVIN] 1.2

Entry CCOC(=O)CCC(=O)O[C@H]1[C@H](O[C@@H]2[C@@H](C)[C@H](O[C@H]3C[C@@](C)(OC)[C@@H](O)[C@H](C)O3)[C@@H](C)C(=O)O[C@H](CC)[C@@](C)(O)[C@H](O)[C@@H](C)C(=O)[C@H](C)C[C@@]2(C)O)O[C@H](C)C[C@@H]1N(C)C [ERYTHROMYCIN ETHYLSUCCINATE] please 1.2

Same for COc1ccc2[nH]c([S+]([O-])Cc3ncc(C)c(OC)c3C)nc2c1 (centres undefined) [OMEPRAZOLE] 0.8

---

Assign KIDNEY_R to each entry below.
species: Rattus norvegicus; experiment: Open TG-GATES - Regimen: Single; type: toxicity, organism-based, Sprague-Dawley; set-up: regimen Single, gender Male, age 6 weeks; details: in vivo, po, 30 mg/kg, 6 h, tissue Kidney, route gavage, dose level Middle
Your answer is read as g, so omit the unit and give the number.

Give its KIDNEY_R value. Item: CN(C)CCCN1c2ccccc2CCc2ccccc21 0.9

Next: CC1=C(/C=C/C(C)=C/C=C/C(C)=C/CO)C(C)(C)CCC1 0.9

Again, but for CN(C)CCN(Cc1cccs1)c1ccccn1 0.9

For CN(C)CCCN1c2ccccc2CCc2ccc(Cl)cc21 then? 1

---

organism: Rattus norvegicus; experiment: Open TG-GATES - Regimen: Daily Repeat; type: toxicity, organism-based, Sprague-Dawley; design: regimen Daily Repeat, gender Male, age 6 weeks; settings: in vivo, po, 0 mg/kg, 72 h, tissue Blood, route gavage, dose level Control, time 3 day
MEASURED ATTRIBUTE: Fbg (mg/dL)
Record the value in mg/dL, omitting the unit from your answer.

Look up Fbg for this compound: CCOC(=O)CCC(=O)O[C@H]1[C@H](O[C@@H]2[C@@H](C)[C@H](O[C@H]3C[C@@](C)(OC)[C@@H](O)[C@H](C)O3)[C@@H](C)C(=O)O[C@H](CC)[C@@](C)(O)[C@H](O)[C@@H](C)C(=O)[C@H](C)C[C@@]2(C)O)O[C@H](C)C[C@@H]1N(C)C [ERYTHROMYCIN ETHYLSUCCINATE] 295.4

Also, CC1=C(/C=C/C(C)=C/C=C/C(C)=C/CO)C(C)(C)CCC1 please. 302.6

Also check NC(N)=Nc1nc(CSCCC(N)=NS(N)(=O)=O)cs1 221.4
